The values you see were collected from ChEMBL document CHEMBL2046396.

- Test system: Pseudomonas aeruginosa
- measurement-description: Antibacterial activity against Pseudomonas aeruginosa ATCC 27853 after 24 hrs by MTT assay
- Format: functional
- conditions: ATCC 27853, 24 h
measured-endpoint: MIC

Qu. Quick one: MIC of `NC[C@H]1O[C@H](O[C@H]2[C@H](O)[C@@H](O[C@H]3O[C@H](CO)[C@@H](O)[C@H](N)[C@H]3O)[C@H](N)C[C@@H]2N)[C@H](N)[C@@H](O)[C@@H]1O` ?
Ans. 1.56 µg/mL

Qu. Quick one: MIC of O=C1CSC(N2N=C(c3ccc(F)cc3)CC2c2cccs2)=N1 (centres undefined) ?
Ans. > 50 µg/mL

Qu. Quick one: MIC of COc1ccc(-c2csc(N3N=C(c4ccc(C)cc4)CC3c3ccco3)n2)cc1 (centres undefined) ?
Ans. 3.13 µg/mL

Qu. Quick one: MIC of COc1ccc(C2=NN(c3nc(-c4ccccc4)cs3)C(c3cccs3)C2)cc1 (centres undefined) ?
Ans. 50 µg/mL

Qu. Quick one: MIC of Cc1ccc(C2=NN(C3=NC(=O)CS3)C(c3cccs3)C2)cc1 (centres undefined) ?
Ans. 6.25 µg/mL

Qu. Quick one: MIC of COc1ccc(-c2csc(N3N=C(c4ccc(F)cc4)CC3c3ccco3)n2)cc1 (centres undefined) ?
Ans. 6.25 µg/mL

Qu. Quick one: MIC of COc1ccc(-c2csc(N3N=C(c4ccc(Cl)c(Cl)c4)CC3c3ccco3)n2)cc1 (centres undefined) ?
Ans. > 50 µg/mL

Qu. Quick one: MIC of COc1ccc(-c2csc(N3N=C(c4ccc(Cl)c(Cl)c4)CC3c3cccs3)n2)cc1 (centres undefined) ?
Ans. 12.5 µg/mL

We now examine a further molecule.
Qu. Quick one: MIC of Cc1ccc(C2=NN(c3nc(-c4ccccc4)cs3)C(c3cccs3)C2)cc1 (centres undefined) ?
Ans. 1.56 µg/mL
